- System: XIP peptide (Xip251-270)
- assay_protocol: small-molecule binders of XIP peptide, primary screen, biochemical, small-molecule microarray, fluorescence 635/667 nm, 0.5 µg/mL protein (AID 1183)
- condition_notes: small-molecule microarray binding, fluorescence 635 nm; higher = more signal
Task for the reader: assign each of the following compounds its reported composite z-score.

Hi! Can you tell me composite z-score for each of these compounds?
1. O=C1OC[C@@H](c2ccccc2)N2CC(/C=C/c3ccccc3)=CC12 (some centres undefined)
2. CC(C)(C)OC(=O)CC[C@]1(C(=O)NCCN2CCOCC2)N=C(c2ccc(OCCCO)cc2)O[C@H]1c1ccccc1N=[N+]=[N-]
3. Cc1ccc(S[C@]2(C(=O)NCc3ccccc3)CC(=O)N(C(C)C)[C@@H]2c2ccc(CO)cc2I)cc1
4. CC(C)C(=C=CC[C@H](O)c1ccc(OCCO)cc1)C[C@H](O)c1cc(Cl)cc(Cl)c1O
5. NC(N)=NCc1cn(CCc2c[nH]c3ccccc23)nn1
6. COC(=O)[C@@]1(Cc2ccc(OC)cc2)[C@H]2c3cc(C(=O)N(C)C)n(Cc4ccccc4)c3C[C@H]2CN1C(=O)c1ccccc1

[0.0221, 0.864, 0.809, 0.746, 0.937, -0.248]

Hi! Can you tell me composite z-score for each of these compounds?
1. C=CC[C@@]12N=C(c3ccc(OCCCO)cc3)O[C@@H]1c1ccccc1N(CCS(=O)(=O)c1ccccc1)C2=O
2. O=C1O[C@@H](c2ccccc2)[C@@H](c2ccccc2)N2[C@@H](c3ccccc3OCCO)[C@]3(C(=O)Nc4ccc(C#CCCO)cc43)[C@@H](C(=O)N3CCN(c4ncccn4)CC3)[C@H]12
3. [N-]=[N+]=NCc1ccccc1C[C@]1(C(=O)NCC(O)CO)N=C(c2ccc(OCCCO)cc2)O[C@H]1c1ccccc1CN=[N+]=[N-] (some centres undefined)

1: 0.767; 2: 0.617; 3: 0.75

The reported measurements were obtained from PubChem BioAssay.
